# tested-target: CARM1 (Homo sapiens, UniProt Q86X55)
# Construct: Flag-CARM1-His; made in house; host or cells: HEK 293F cells infected with recombinant baculovirus (pFastBacMam)
# experiment-description: CARM1 enzyme assay on peptide substrate (3H-SAM Flashplate)
# Type: biochemical
# measurement-conditions: CARM1 0.25 nM, 3H-SAM 30 nM, peptide 250 nM, 30 min preincubation; read-out: Biochem IC50
pIC50: −log10 of the molar value.
property-label: pIC50

Sample answers from the record:
>>> value_measured("CC(C)n1ncc2c(N(C)CC3CCOCC3)cc(-c3cccc(OCC(O)CN)c3)nc21 (centres unmarked) [Example 42-1]")
"> 7.00"
>>> value_measured("CNCC(O)COc1cccc(-c2cc(NCCCCCCNC(=O)c3cccnc3)c3cnn(C(C)C)c3n2)c1 (centres unmarked) [Example 65-1]")
"6.00 to 7.00"
>>> value_measured("CNCC(O)COc1cccc(-c2cc(NCc3ccccn3)c3cnn(C(C)C)c3n2)c1 (centres unmarked) [Example 34-1]")
"6.00 to 7.00"
>>> value_measured("CNCC(O)COc1cccc(-c2cc(NC(=O)OCc3ccccc3)c3cnn(C(C)C)c3n2)c1 (centres unmarked) [Example 54-1]")
"6.00 to 7.00"
>>> value_measured("CC(C)n1ncc2c(NC(=O)N(C)C)cc(-c3cccc(OCC(O)CN)c3)nc21 (centres unmarked) [Example 14-1]")
"6.00 to 7.00"
>>> value_measured("CNCC(O)COc1cccc(-c2cc(NC3CCOCC3)c3cnn(C(C)C)c3n2)c1 (centres unmarked) [Example 29-1]")
"5.00 to 5.52"

Query: Give me measured pIC50, please, for this molecule: CNCC(O)COc1cccc(-c2cc(NCCNC(=O)c3ccn(C)n3)c3cnn(C(C)C)c3n2)c1 (centres unmarked) [Example 58-1]
Response: 6.00 to 7.00

Query: Give me measured pIC50, please, for this molecule: CNCC(O)COc1cccc(-c2cc(NCCCCCN)c3cnn(C(C)C)c3n2)c1 (centres unmarked) [Example 32-1]
Response: > 7.00

###

# tested-target: CARM1 (Homo sapiens, UniProt Q86X55)
# Construct: Flag-CARM1-His
# Sequence (Q86X55 1-585 isoform Q86X55-1): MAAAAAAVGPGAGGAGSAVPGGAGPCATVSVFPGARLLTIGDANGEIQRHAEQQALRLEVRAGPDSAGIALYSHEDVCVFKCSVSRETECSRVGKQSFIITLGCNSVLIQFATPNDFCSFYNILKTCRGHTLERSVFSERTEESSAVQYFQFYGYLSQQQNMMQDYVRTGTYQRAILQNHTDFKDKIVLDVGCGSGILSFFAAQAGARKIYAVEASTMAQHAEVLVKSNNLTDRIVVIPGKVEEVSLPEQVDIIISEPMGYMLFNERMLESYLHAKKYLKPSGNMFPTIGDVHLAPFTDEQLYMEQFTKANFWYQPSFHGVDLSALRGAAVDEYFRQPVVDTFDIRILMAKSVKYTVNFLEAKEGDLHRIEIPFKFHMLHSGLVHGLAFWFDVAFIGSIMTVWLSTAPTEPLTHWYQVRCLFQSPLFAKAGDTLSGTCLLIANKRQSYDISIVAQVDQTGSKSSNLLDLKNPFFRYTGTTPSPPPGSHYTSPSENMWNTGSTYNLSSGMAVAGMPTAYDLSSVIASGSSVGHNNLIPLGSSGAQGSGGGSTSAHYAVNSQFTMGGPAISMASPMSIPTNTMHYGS
# experiment-description: CARM1 enzyme assay on peptide substrate (3H-SAM Flashplate)
# measurement-conditions: CARM1 0.25 nM, 3H-SAM 30 nM, peptide 250 nM, 30 min preincubation; read-out: Biochem IC50
# Excerpt: S-adenosylmethionine (SAM), S-adenosylhomocysteine (SAH), bicine, Tween20, dimethylsulfoxide (DMSO), bovine skin gelatin (BSG), sodium butyrate and Tris(2-carboxyethyl)phosphine hydrochloride solution (TCEP) were purchased from Sigma-Aldrich at the highest level of purity possible. ^3H-SAM was purchase from American Radiolabeled Chemicals with a specific activity of 80 Ci/mmol. 384-well streptavidin Flashplates were purchased from PerkinElmer. […]
pIC50: −log10 of the molar value.
# key: entry, value: pIC50

Sample answers from the record:
>>> value_measured("CNCC(O)COc1cccc(-c2cc(NCCCCNC(=O)c3cccnc3)c3cnn(C(C)C)c3n2)c1 (stereo not shown)")
"6.00 to 7.00"
>>> value_measured("CC(C)n1ncc2c(NCc3ccncc3)cc(-c3cccc(OCC(O)CN)c3)nc21 (stereo not shown)")
"> 7.00"
>>> value_measured("CNCC(O)COc1cccc(-c2cc(NCc3c(C)cc(C)nc3OC)c3cnn(C(C)C)c3n2)c1 (stereo not shown)")
"6.00 to 7.00"
>>> value_measured("CC(C)n1ncc2c(NC3CC3)cc(-c3cccc(OCC(O)CN)c3)nc21 (stereo not shown)")
"6.00 to 7.00"
>>> value_measured("CNCC(O)COc1cccc(-c2cc(N(C)Cc3ccccn3)c3cnn(C(C)C)c3n2)c1 (stereo not shown)")
"6.00 to 7.00"

Query: Give me measured pIC50, please, for this compound: CC(C)n1ncc2c(NCC3CCOCC3)cc(-c3cccc(OCC(O)CN)c3)nc21 (stereo not shown)
Response: > 7.00

Query: Give me measured pIC50, please, for this compound: CC(C)n1ncc2c(NC(=O)NC3CCOCC3)cc(-c3cccc(OCC(O)CN)c3)nc21 (stereo not shown)
Response: 6.00 to 7.00
